// reported pEC50 for each item listed
tested on: HIV-1 (strain IIIB); experiment: Anti-HIV-1 (strain IIIB) activity in MT-4 cells, MTT assay; type: cell-based; settings: protection of MT-4 cells against HIV-induced cytopathogenicity by 50%
pEC50: −log10 of the molar value.
readout name: pEC50

compound	system name	value measured
O=C1Nc2ccc(Cl)cc2[C@@](C#CC2CC2)(C(F)(F)F)O1 [EFV, reference compound]	HIV-1 (strain IIIB)	8.52
Cc1ccnc2c1NC(=O)c1cccnc1N2C1CC1 [NVP, reference compound]	HIV-1 (strain IIIB)	6.72

====

// reported CC50 at 5 days for each item listed
test: Cytotoxicity in mock-infected MT-4 cells, MTT assay; assay type: cell-based; conditions: human, mock-infected MT-4 cells; reduction of normal uninfected MT-4 cell viability by 50%

compound	CC50 at 5 days [µM]
O=C1Nc2cc(Cl)c(Cl)cc2C1=NNc1c[nH]c(=O)[nH]c1=O [Compound 11a]	402
O=C1Nc2cc(Br)c(Br)cc2C1=NNc1c[nH]c(=O)[nH]c1=O [Compound 11b]	349
O=C1Nc2cc(Cl)c(Cl)cc2C1=NNc1cc(=O)[nH]c(=O)[nH]1	294

====

// reported pIC50 for each item listed
target: HIV-1 RT-associated RNase H (Human immunodeficiency virus type 1 group M subtype B, UniProt P04585); construct: HIV-1 group M subtype B heterodimeric reverse transcriptase (RT) was expressed and purified; assay: HIV-1 RT-associated RNase H inhibition (fluorescent RNA/DNA hybrid); details: HIV-1 RT wt; average of three independent determinations; read-out: IC50, concentration required to inhibit 50% of in vitro RNase H activity
pIC50: −log10 of the molar value.

structure smiles string	limit sign	pIC50
O=C1Nc2ccc(Br)cc2C1=NNc1cc(=O)[nH]c(=O)[nH]1	<	4.00
COc1ccc2c(c1)C(=NNc1cc(=O)[nH]c(=O)[nH]1)C(=O)N2	<	4.00
O=C1Nc2cc(Cl)ccc2C1=NNc1cc(=O)[nH]c(=O)[nH]1	<	4.00
Cc1ccc2c(c1)C(=NNc1cc(=O)[nH]c(=O)[nH]1)C(=O)N2	<	4.00
O=C1Nc2ccc(OC(F)(F)F)cc2C1=NNc1cc(=O)[nH]c(=O)[nH]1	=	5.05
O=C1Nc2c(Cl)cccc2C1=NNc1cc(=O)[nH]c(=O)[nH]1	=	4.33
Cc1cc(C)c2c(c1)C(=NNc1cc(=O)[nH]c(=O)[nH]1)C(=O)N2	=	4.63
O=C1Nc2cc(Br)ccc2C1=NNc1cc(=O)[nH]c(=O)[nH]1	=	4.63
